// data source = FireProtDB (doi:10.1093/protein/15.6.455)

B1: Cytochrome c-551, P00099 (parent)
chain: MKPYALLSLLATGTLLAQGAWAEDPEVLFKNKGCVACHAIDTKMVGPAYKDVAAKFAGQAGAEAELAQRIKNGSQGVWGPIPMPPNAVSDDEAQTLAKWVLSQK

# Variants of: B1
# condition_info: Pseudomonas aeruginosa (strain ATCC 15692 / DSM 22644 / CIP 104116 / JCM 14847 / LMG 12228 / 1C / PRS 101 / PAO1); pH 3.6; 62.6 °C; Thermal; DSC; sodium acetate 50 mM; reversible: yes; structure 451C; whole UniProt chain shown
Parameter: heat capacity change of unfolding. Scope: all listed entries.
Report the value in kcal/mol/K with no unit label.

MKPYALLSLLATGTLLAQGAWAEDPEVLAKNKGCMACHAIDTKMVGPAYKDVAAKFAGQAGAEAELAQRIKNGSQGVWGPIPMPPNAVSDDEAQTLAKWVLSQK
0.64

Qu. State the recorded heat capacity change of unfolding for this entry: MKPYALLSLLATGTLLAQGAWAEDPEVLAKNKGCMACHAIDTKMVGPAYKDVAAKFAGQAGAEAELAQRIKNGSQGVWGPIPMPPNAVSDDEAQTLAKWILSQK
Ans. 0.92

Qu. State the recorded heat capacity change of unfolding for this entry: MKPYALLSLLATGTLLAQGAWAEDPEVLFKNKGCVACHAIDTKMVGPAYKDVAAKFAGQAGAEAELAQRIKNGSQGVWGPIPMPPNAVSDDEAQTLAKWILSQK
Ans. 0.73

Qu. State the recorded heat capacity change of unfolding for this entry: MKPYALLSLLATGTLLAQGAWAEDPEVLFKNKGCVACHAIDTKMVGPAYKDVAAKYAGQAGAEAYLAQRIKNGSQGVWGPIPMPPNAVSDDEAQTLAKWVLSQK
Ans. 0.74

Qu. State the recorded heat capacity change of unfolding for this entry: MKPYALLSLLATGTLLAQGAWAEDPEVLAKNKGCMACHAIDTKMVGPAYKDVAAKYAGQAGAEAYLAQRIKNGSQGVWGPIPMPPNAVSDDEAQTLAKWVLSQK
Ans. 1

Qu. State the recorded heat capacity change of unfolding for this entry: MKPYALLSLLATGTLLAQGAWAEDPEVLAKNKGCMACHAIDTKMVGPAYKDVAAKYAGQAGAEAYLAQRIKNGSQGVWGPIPMPPNAVSDDEAQTLAKWILSQK
Ans. 1.12

Qu. State the recorded heat capacity change of unfolding for this entry: MKPYALLSLLATGTLLAQGAWAEDPEVLFKNKGCVACHAIDTKMVGPAYKDVAAKYAGQAGAEAYLAQRIKNGSQGVWGPIPMPPNAVSDDEAQTLAKWILSQK
Ans. 0.95
